Experiment: Inhibition of human CypD K133I mutant expressed in Escherichia coli BL21(DE3) using Suc-Ala-Ala-Cis-Pro-Phe-pNA as substrate by spectrophotometric based chymotrypsin enzyme coupled assay
readout: IC50 (µM)

* CSc1ccccc1C1CCCN1C(=O)C(NC(=O)NCc1ccc(N)cc1)c1ccccc1 (configuration not stated) | 0.2
